Counter-ions that a name gives are not always drawn.
Listed here: items and their measured melting point.
The reply should be a number in °C, with the unit left off.

{"columns": ["compound", "reported.metric", "test.result"],
 "data": [
  ["CCOC(=O)CCc1ccc(NC(=O)c2csc(NC(=O)NCc3ccccc3)n2)cc1", "melting point", 194]
]}

### Prompt Quick one: melting point for O=C(O)C[C@H](NC(=O)CNC(=O)c1csc(NC(=O)NCc2ccccc2)n1)C(=O)NCc1ccccc1 (as salt: trifluoroacetate) ?
### Response 193

### Prompt Next: COc1cccc(NC(=O)[C@H](CC(=O)O)NC(=O)CNC(=O)c2csc(NC(=O)NCc3ccccc3)n2)c1
### Response 185
